Values from PubChem BioAssay AID1963831

# Test system: 889142-216-R-J1-PDC complex spheroid viability;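 note: spheroids exposed to compounds for seven days; 100% = DMSO vehicle control viability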
# Procedure Summary: Anticancer human tumor 889142-216-R-J1-PDC patient-derived bladder carcinoma cell line growth inhibition [POLQ]
# Experimental Setup: second compound 3.16 µM; first compound 0.01 µM; hits give low values
Endpoint Name: viability, T/C (%)
Record the value in %, omitting the unit from your answer.

Consider the following illustrative entries.
C=CCn1c(=O)c2cnc(Nc3ccc(N4CCN(C)CC4)cc3)nc2n1-c1cccc(C(C)(C)O)n1 + Cc1cccc(N(C)C(=O)C2C(O)CCN2c2nc(C)cc(C(F)(F)F)c2C#N)c1; 113
C=CCn1c(=O)c2cnc(Nc3ccc(N4CCN(C)CC4)cc3)nc2n1-c1cccc(C(C)(C)O)n1 + COC1C(OC(N)=O)C(O)C(Oc2ccc3c(O)c(NC(=O)c4ccc(O)c(CC=C(C)C)c4)c(=O)oc3c2C)OC1(C)C; 99.6
COc1cccc(OCCCN)c1-c1cc(Nc2cnc(C#N)cn2)n[nH]1 + COC1C(OC(N)=O)C(O)C(Oc2ccc3c(O)c(NC(=O)c4ccc(O)c(CC=C(C)C)c4)c(=O)oc3c2C)OC1(C)C; 61.5
C=CCn1c(=O)c2cnc(Nc3ccc(N4CCN(C)CC4)cc3)nc2n1-c1cccc(C(C)(C)O)n1 + Nc1ccc(C#CCN(C(=O)Cc2ncc(C(F)(F)F)cc2C(F)(F)F)c2ccc(F)cc2)nn1; 87.4
COc1cccc(OCCCN)c1-c1cc(Nc2cnc(C#N)cn2)n[nH]1 + Cc1cccc(N(C)C(=O)C2C(O)CCN2c2nc(C)cc(C(F)(F)F)c2C#N)c1; 73.6
CCc1c2c(nc3ccc(O)cc13)-c1cc3c(c(=O)n1C2)COC(=O)[C@]3(O)CC + Cc1cccc(N(C)C(=O)C2C(O)CCN2c2nc(C)cc(C(F)(F)F)c2C#N)c1; 60.4
CC[C@@]1(O)C(=O)OCc2c1cc1n(c2=O)Cc2cc3c(CN(C)C)c(O)ccc3nc2-1 + Cc1cccc(N(C)C(=O)C2C(O)CCN2c2nc(C)cc(C(F)(F)F)c2C#N)c1; 84
COc1cccc(OCCCN)c1-c1cc(Nc2cnc(C#N)cn2)n[nH]1 + Nc1ccc(C#CCN(C(=O)Cc2ncc(C(F)(F)F)cc2C(F)(F)F)c2ccc(F)cc2)nn1; 76.7

Can you share its viability, T/C? I mean this compound: Cn1ncnc1[C@H]1c2n[nH]c(=O)c3cc(F)cc(c23)N[C@@H]1c1ccc(F)cc1 + Cc1cccc(N(C)C(=O)C2C(O)CCN2c2nc(C)cc(C(F)(F)F)c2C#N)c1
73.6

Any idea what viability, T/C was measured for Cn1ncnc1[C@H]1c2n[nH]c(=O)c3cc(F)cc(c23)N[C@@H]1c1ccc(F)cc1 + Nc1ccc(C#CCN(C(=O)Cc2ncc(C(F)(F)F)cc2C(F)(F)F)c2ccc(F)cc2)nn1 ?
77.1

What value of viability, T/C has been reported for the following compound? CCc1c2c(nc3ccc(O)cc13)-c1cc3c(c(=O)n1C2)COC(=O)[C@]3(O)CC + Nc1ccc(C#CCN(C(=O)Cc2ncc(C(F)(F)F)cc2C(F)(F)F)c2ccc(F)cc2)nn1
65.6

Fill in: viability, T/C of Cn1ncnc1[C@H]1c2n[nH]c(=O)c3cc(F)cc(c23)N[C@@H]1c1ccc(F)cc1 + COC1C(OC(N)=O)C(O)C(Oc2ccc3c(O)c(NC(=O)c4ccc(O)c(CC=C(C)C)c4)c(=O)oc3c2C)OC1(C)C is ___
83.9

Tell me the measured viability, T/C of CC[C@@]1(O)C(=O)OCc2c1cc1n(c2=O)Cc2cc3c(CN(C)C)c(O)ccc3nc2-1 + Nc1ccc(C#CCN(C(=O)Cc2ncc(C(F)(F)F)cc2C(F)(F)F)c2ccc(F)cc2)nn1 , please.
89.4
